Where these numbers come from: patent US9428492B2

Please consider the recorded IC50 for UniProtKB P11712 in what follows.
Sequence (P11712 whole entry): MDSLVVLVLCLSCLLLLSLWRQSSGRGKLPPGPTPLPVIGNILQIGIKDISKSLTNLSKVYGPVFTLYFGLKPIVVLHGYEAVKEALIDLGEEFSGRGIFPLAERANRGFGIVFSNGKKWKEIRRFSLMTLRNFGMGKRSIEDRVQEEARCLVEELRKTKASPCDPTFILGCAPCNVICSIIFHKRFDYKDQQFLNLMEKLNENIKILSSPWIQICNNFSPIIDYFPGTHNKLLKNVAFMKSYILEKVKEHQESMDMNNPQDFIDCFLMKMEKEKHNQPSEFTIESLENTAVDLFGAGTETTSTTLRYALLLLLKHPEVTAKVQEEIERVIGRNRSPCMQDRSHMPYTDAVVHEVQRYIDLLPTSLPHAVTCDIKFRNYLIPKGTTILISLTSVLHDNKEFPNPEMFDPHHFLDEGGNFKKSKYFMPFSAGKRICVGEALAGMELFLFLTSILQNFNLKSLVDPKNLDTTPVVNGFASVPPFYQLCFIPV

Observe how each entry below is paired with its result.
CO[C@@H](C)c1nc(C)nn1-c1cc([C@@H]2C[C@H]2c2nc3ccccc3n2C)nc(C)n1 [Compound B, reference compound]: 10.5 µM
Cc1nc([C@@H]2C[C@H]2c2nc3ccccc3n2C)cc(-n2nc(C)nc2[C@@H](C)O)n1 [Example 14]: > 50 µM
CCC(O)c1nc(C)nn1-c1cc(N2CC(c3nc4ccccc4n3C)C2)nc(C)n1 (single isomer, unassigned) [Example 4b]: > 50 µM
Cc1nc(N2CC(c3nc4ccccc4n3C)C2)cc(-n2nc(C)nc2[C@@H](C)O)n1 [Example 2]: > 50 µM
COCc1nc(C)nn1-c1cc([C@@H]2C[C@H]2c2nc3ccccc3n2C)nc(C)n1 [Compound C, reference compound]: 46 µM

IC50 of CCC(O)c1nc(C)nn1-c1cc([C@@H]2C[C@H]2c2nc3ccccc3n2C)nc(C)n1 (single isomer, unassigned) [Example 19a] , assay on UniProtKB P11712, is > 50 µM

IC50 of Cc1nc([C@@H]2C[C@H]2c2nc3ccccc3n2C)cc(-n2nc(C)nc2C(C)(C)O)n1 [Compound A, reference compound] , assay on UniProtKB P11712, is > 50 µM

###

# Target: human PDE10A2 (Homo sapiens (Human))
# Experimental Protocol: PDE10 fluorescence polarization (IMAP FP) inhibition assay
# Type: biochemical
# Conditions: read-out: PDE10a Ki
Value Kind: Ki (pM)

(P) Cc1nc([C@@H]2C[C@H]2c2nc3ccccc3n2C)cc(-n2nc(C)nc2[C@H](O)c2ccccc2)n1 [Example 15]
(Q) Cc1nc(C(C)O)n(-c2cc(N3CC(c4nc5ccccc5n4C)C3)nc(C(F)(F)F)n2)n1 (stereo not shown) [Example 8]
**Q:** Lab note: record which item had the higher Ki, P or Q . In your reply, give the label of the chosen option.
**A:** Q

(I) Cc1nc(N2CC(c3nc4ccccc4n3C)C2)cc(-n2nc(C)nc2[C@H](C)O)n1 [Example 1]
(II) Cc1nc([C@@H]2C[C@H]2c2nc3ccccc3n2C)cc(-n2nc(C)nc2C(O)C(C)C)n1 (stereo partly shown) [Example 21]
**Q:** Lab note: record which item had the higher Ki, I or II . In your reply, give the label of the chosen option.
**A:** II
(II: 470 pM, I: 230 pM)

###

# Target: human PDE10A2 (Homo sapiens (Human), UniProt Q9Y233)
# Sequence (Q9Y233 267-1055): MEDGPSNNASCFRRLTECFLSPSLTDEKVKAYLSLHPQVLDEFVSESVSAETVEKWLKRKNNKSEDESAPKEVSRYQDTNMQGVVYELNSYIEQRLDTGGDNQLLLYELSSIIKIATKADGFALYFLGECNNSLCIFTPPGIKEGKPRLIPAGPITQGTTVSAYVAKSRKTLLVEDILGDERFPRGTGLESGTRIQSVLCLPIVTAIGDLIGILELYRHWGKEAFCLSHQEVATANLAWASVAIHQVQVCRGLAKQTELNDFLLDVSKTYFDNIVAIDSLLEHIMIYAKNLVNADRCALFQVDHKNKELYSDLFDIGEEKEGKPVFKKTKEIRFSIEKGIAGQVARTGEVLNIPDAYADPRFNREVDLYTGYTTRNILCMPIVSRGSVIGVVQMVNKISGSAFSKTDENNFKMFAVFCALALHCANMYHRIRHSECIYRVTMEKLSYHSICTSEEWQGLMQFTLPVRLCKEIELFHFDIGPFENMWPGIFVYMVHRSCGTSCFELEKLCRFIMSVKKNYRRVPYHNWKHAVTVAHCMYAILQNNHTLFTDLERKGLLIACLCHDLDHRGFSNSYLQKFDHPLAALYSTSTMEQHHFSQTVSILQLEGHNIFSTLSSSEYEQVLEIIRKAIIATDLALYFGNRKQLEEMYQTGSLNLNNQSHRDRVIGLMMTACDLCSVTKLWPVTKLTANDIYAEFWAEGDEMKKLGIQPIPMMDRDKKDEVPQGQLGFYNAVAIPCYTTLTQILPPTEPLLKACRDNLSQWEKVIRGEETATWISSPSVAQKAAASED
# Experimental Protocol: PDE10 fluorescence polarization (IMAP FP) inhibition assay
# Assay type: biochemical
# Conditions: read-out: PDE10a Ki
Value Kind: Ki (nM)

Observe how each entry below is paired with its result.
Cc1nc(N2CC(c3nc4ccccc4n3C)C2)cc(-n2nc(C)nc2C(O)C2CC2)n1 (single isomer, unassigned) [Example 6a]: 0.17
Cc1nc([C@H](C)O)n(-c2cc([C@@H]3C[C@H]3c3nc4ccccc4n3C)nc(C3CC3)n2)n1: 0.36
Cc1nc(N2CC(c3nc4ccccc4n3C)C2)cc(-n2nc(C)nc2C(O)CF)n1 (stereo not drawn): 0.34
COc1nc(N2CC(c3nc4ccccc4n3C)C2)cc(-n2nc(C)nc2C(C)O)n1 (stereo not drawn): 1.2

(I) Cc1nc([C@@H]2C[C@H]2c2nc3ccccc3n2C)cc(-n2nc(C)nc2[C@@H](O)c2ccccc2)n1
(II) Cc1nc(C(C)O)n(-c2cc(N3CC(c4nc5ccccc5n4C)C3)nc(C(F)(F)F)n2)n1 (single isomer, unassigned) [Example 8b]
**Q:** For the pair I and II , which entry has the numerically smaller recorded Ki? In your reply, give the label of the chosen option.
**A:** I
(I: 0.62 nM, II: 1 nM)

###

# Target: human PDE10A2 (Homo sapiens (Human))
# Experimental Protocol: PDE10 fluorescence polarization (IMAP FP) inhibition assay
# Type: biochemical
# Conditions: comparison table with Compounds A, B, C; read-out: PDE10 Ki
Value Kind: Ki (nM)

Cc1nc([C@@H]2C[C@H]2c2nc3ccccc3n2C)cc(-n2nc(C)nc2C(C)(C)O)n1 [Compound A, reference compound]: 4.2
Cc1nc([C@@H]2C[C@H]2c2nc3ccccc3n2C)cc(-n2nc(C)nc2[C@@H](C)O)n1: 1.1

(I) Cc1nc(N2CC(c3nc4ccccc4n3C)C2)cc(-n2nc(C)nc2C(O)C2CC2)n1 (single isomer, unassigned)
(II) Cc1nc(N2CC(c3nc4ccccc4n3C)C2)cc(-n2nc(C)nc2[C@@H](C)O)n1
(III) CO[C@@H](C)c1nc(C)nn1-c1cc([C@@H]2C[C@H]2c2nc3ccccc3n2C)nc(C)n1 [Compound B, reference compound]
**Q:** Hey, quick one: sort these by Ki, low to high? Please express your ranking as an ordered list of the labels.
**A:** I, II, III
(I: 0.17 nM, II: 1.2 nM, III: 2.1 nM)

###

Listing of entries alongside the reported pIC50.
# Target: UniProt P11712
# Experimental Protocol: reversible inhibition of CYP2C9
# Type: in vitro ADME
pIC50: −log10 of the molar value.

Cc1nc(N2CC(c3nc4ccccc4n3C)C2)cc(-n2nc(C)nc2C(O)C2CC2)n1 (single isomer, unassigned) [Example 6a]: < 4.30
Cc1nc([C@@H]2C[C@H]2c2nc3ccccc3n2C)cc(-n2nc(C)nc2[C@H](C)O)n1 [Example 13]: < 4.30

The reported pIC50 of the molecule Cc1nc(N2CC(c3nc4ccccc4n3C)C2)cc(-n2nc(C)nc2C(O)C(F)(F)F)n1 (single isomer, unassigned) [Example 3b] was < 4.30

###

# Target: human PDE10A2 (Homo sapiens (Human))
# Experimental Protocol: PDE10 fluorescence polarization (IMAP FP) inhibition assay
# Format: biochemical
# Conditions: read-out: PDE10a Ki
pKi: −log10 of the molar value.
Value Kind: pKi

Cc1nc(C2C[C@H]2c2nc3ccccc3n2C)cc(-n2nc(C)nc2C(O)C(F)(F)F)n1 (stereo partly drawn) [Example 20]: 9.26
Cc1nc(N2CC(c3nc4ccccc4n3C)C2)cc(-n2nc(C)nc2C(O)C(C)C)n1 (single isomer, unassigned) [Example 5a]: 9.47
Cc1nc(N2CC(c3nc4ccccc4n3C)C2)cc(-n2nc(C)nc2C(O)C(C)C)n1 (stereo not drawn) [Example 5]: 9.39

###

# Target: human PDE10A2 (Homo sapiens (Human), UniProt Q9Y233)
# Experimental Protocol: PDE10 fluorescence polarization (IMAP FP) inhibition assay
# Format: biochemical
# Conditions: comparison table with Compounds A, B, C; read-out: PDE10 Ki
Value Kind: Ki (nM)

CCC(O)c1nc(C)nn1-c1cc(N2CC(c3nc4ccccc4n3C)C2)nc(C)n1 (single isomer, unassigned) [Example 4b]: 0.51

(P) Cc1nc(N2CC(c3nc4ccccc4n3C)C2)cc(-n2nc(C)nc2C(O)C(F)(F)F)n1 (single isomer, unassigned) [Example 3b]
(Q) COCc1nc(C)nn1-c1cc([C@@H]2C[C@H]2c2nc3ccccc3n2C)nc(C)n1 [Compound C, reference compound]
(R) Cc1nc([C@@H]2C[C@H]2c2nc3ccccc3n2C)cc(-n2nc(C)nc2[C@H](C)O)n1 [Example 13]
**Q:** Please list the entries, largest Ki first. Please express your ranking as an ordered list of the labels.
**A:** R, Q, P
